measured.on: T1, AAV9 capsid (adeno-associated virus serotype 9, UniProt Q6JC40)
T1 construct: also called wtAAV9; AAV9 vector; copies: 60
protocol.text: far-Western, overlay or dot blot; native dot immunoblot: native capsids adsorbed onto nitrocellulose; human mAbs at ~1 µg/ml in PBS with 6% milk, 0.1% Tween-20, 1 h; anti-human-HRP
run.conditions: both partners purified
attribute.measured: binding result

mAb2-4 (antibody, V domains shown) VH: EVQLLESGGGLVHPGGSLRLSCAASGFPFSNFAMSWVRQAPGKGLEWVSTISGSSGSTYYADSVRGRFTISRDYSKNTVYLEMNSLRADDTAIYYCAKDRMITFGEVIVKHYDAFEIWGQGTRVAV VL: DIQMTQSPSSLSASVGDRVTITCRASQTISTNVNWYQQKPGKAPKLLIYAASSLQSGVPSRFSGSGSGTDFTLTISSLQPEDFATFYCQQSYSAPLTFGEGTKV :: binds
mAb2-5 (antibody, V domains shown) VH: EVQLVESGGGLVKPGGSPRLSCAASGFNFGSYSMNWVRQAPGKGLEWVSSISSSSSYIYYADSVKGRFTISRDNAKHSLYLQVNSLRAEDTAVYYCARDPTTYGYNSAWDKKGWYFDLWGRGTLLTVS VL: VLTQPPSVSAAPGQMVTISCSGSSSNIGNDYISWYQQLPGTAPKLLIYDNNERPSGIPDRFSGSKSGTSATLGITGVQTGDEADYYCGTWDSSLSAWVFGEGTKLTVV :: binds
